// provenance: patent US7196110B2

# Tested on: human umbilical vein endothelial cells (HUVEC)
# protocol_summary: Anti-cell proliferation in normal cells in the absence of PDGF stimulation (BrdU incorporation)
# Assay type: cell-based
# condition_set: LSGS, PDGF-BB independent, read-out: IC50 on cell proliferation, HUVEC (LSGS)
pIC50: −log10 of the molar value.
Cut-off 7 on pIC50, inclusive. At or above means fulfilled; below means not fulfilled.

Worked set:
>>> group_label("CN1CCN(c2ccc3c(c2)Cc2c-3n[nH]c2Nc2cccc(Br)c2)CC1")
"not fulfilled"
>>> group_label("COc1cc2c(cc1OC)-c1n[nH]c(NCc3ccccc3)c1C2")
"not fulfilled"
>>> group_label("COc1cccc(Nc2[nH]nc3c2Cc2cc4c(cc2-3)OCO4)c1")
"not fulfilled"
>>> group_label("COC(=O)c1cccc(Nc2[nH]nc3c2Cc2cc(OCCCN4CCCC4)c(OC)cc2-3)c1")
"not fulfilled"
>>> group_label("COC(=O)c1cccc(Nc2[nH]nc3c2Cc2cc(OC)c(OC)cc2-3)c1")
"fulfilled"

Hello, I need to know if COc1cc2c(cc1OC)-c1n[nH]c(Nc3ccccc3F)c1C2 has measured pIC50 not below 7. Thanks! fulfilled

Determine whether this compound has pIC50 no lower than 7: Cc1ccc2c(c1)-c1n[nH]c(Nc3ccccc3)c1C2 not fulfilled

// inclusive: pIC50 at least 7? input: COc1cc2c(cc1OC)-c1n[nH]c(Nc3cccnc3)c1C2 not fulfilled

Check the entry COc1cc2c(cc1OC)-c1n[nH]c(NCc3cc(Cl)ccc3Cl)c1C2 : does pIC50 equal or exceed 7? fulfilled

----------
# target: PDGF-receptor beta enzyme comprising the tyrosine kinase domain (Homo sapiens, UniProt P09619)
# Construct: from amino acid 545 to 1106 of GenBank Access NO: AAA36427
# Sequence (P09619 545-1106): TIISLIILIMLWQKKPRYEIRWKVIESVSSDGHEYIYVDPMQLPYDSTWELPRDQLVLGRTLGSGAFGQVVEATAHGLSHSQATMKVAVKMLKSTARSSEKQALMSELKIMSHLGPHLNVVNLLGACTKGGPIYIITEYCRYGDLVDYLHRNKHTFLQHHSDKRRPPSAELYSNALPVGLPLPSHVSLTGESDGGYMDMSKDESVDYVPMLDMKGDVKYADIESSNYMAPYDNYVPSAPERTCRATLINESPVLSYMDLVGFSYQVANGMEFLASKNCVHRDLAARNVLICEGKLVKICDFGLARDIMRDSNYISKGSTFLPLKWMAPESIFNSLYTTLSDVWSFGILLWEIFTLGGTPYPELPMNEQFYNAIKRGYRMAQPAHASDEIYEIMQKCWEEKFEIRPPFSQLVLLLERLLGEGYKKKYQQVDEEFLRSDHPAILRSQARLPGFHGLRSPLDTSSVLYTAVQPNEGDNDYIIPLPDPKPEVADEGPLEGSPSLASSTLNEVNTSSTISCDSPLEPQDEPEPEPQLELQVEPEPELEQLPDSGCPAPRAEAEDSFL
# protocol_summary: Inhibition of PDGF-receptor kinase activity (cell-free, PLC1 peptide, 33P Flashplate)
# Format: biochemical
# condition_set: PDGF-R kinase activity; read-out: IC50
pIC50: −log10 of the molar value.
Returns Satisfied if the recorded pIC50 is greater than or equal to 7, and Not satisfied otherwise.

Consider the worked cases shown below.
>>> group_label("CN(C)CCCOc1cccc2c1Cc1c-2n[nH]c1Nc1ccccc1")
"Not satisfied"
>>> group_label("COc1cc2c(cc1OC)-c1n[nH]c(Nc3ccc(F)c(Cl)c3)c1C2")
"Satisfied"
>>> group_label("COc1cccc(Nc2[nH]nc3c2Cc2cc(F)c(OC)cc2-3)c1")
"Satisfied"
>>> group_label("COc1cccc(Nc2[nH]nc3c2Cc2cc(OCCCN4CCCC4)c(OC)cc2-3)c1")
"Satisfied"
>>> group_label("COc1cccc(Nc2[nH]nc3c2C(C)c2cc(OC(C)C)c(OC(C)C)cc2-3)c1 (stereo not drawn)")
"Not satisfied"
>>> group_label("c1ccc(Nc2[nH]nc3c2Cc2ccccc2-3)cc1")
"Not satisfied"

Does COc1cc(Nc2[nH]nc3c2Cc2cc(F)ccc2-3)cc(OC)c1 have a reported pIC50 of at least 7? Satisfied

Assess whether reported pIC50 for COc1cc2c(cc1OC)-c1n[nH]c(Nc3cccnc3Cl)c1C2 sits at 7 or higher. Satisfied

Exam item: decide whether the reported pIC50 for COc1cc2c(cc1OC)-c1n[nH]c(NCC3CCCCC3)c1C2 is at least 7. Not satisfied

Hi, just wondering whether COc1cc2c(cc1OCCCO)Cc1c-2n[nH]c1NCc1ccccc1Cl shows pIC50 of 7 or higher. Satisfied
